Target: F protein of human metapneumovirus strain JPS05-21 (type B2), on infectious virus (human metapneumovirus, strain JPS05-21 …)
Test: cell-based or functional assay
result-type: IC90, neutralizing activity (hMPV infection of LLC-MK2 cells; GraphPad Prism 6) (µg/mL)

binder	unit-descriptor	reported-value
EV046113 (antibody, human IgG1, kappa, V domains shown) VH: QVQLVESGGGLVRPGGSLRLSCAASGFTFSDYFMTWIRQAPGKGLEWVSYINSIGSVIFYADSVEGRFTVSRDNTMKSLFLQMNSLTAEDTAVYYCARSCRISYGASGGFSCGMDVWGQGTPVTVSS VL: DIQMTQSPSSLSASVGDRVTITCQASQSIRENINWYQQKTGKAPKLLIYDASILETGVPSRFSGSGSGTHFTFTISSLQPEDMATYYCQQYHHLITFGQGTRLDIKR	µg/mL	2.29
EV046135 (antibody, human IgG1, lambda, V domains shown) VH: QEQLVESGGDLVKPGGSLRITCAASGFTLSGYALVWVRQAPGRGLEWIADITASSTYINYAASVKGRFTISRDNAQSSLFLQMSSLRADDTGVYFCARLPHLPGFFDLWGRGTLVSVSS VL: QSVLTQPPSVSGAPGQRVTISCTGNSSNIGAGYDVNWYQHLPGTAPKLLISVNTNRPSGVPDRFSGSMSGTSASLAITGLQAEDEADYYCQSYDRRLSGYVFGTGTKVTVLG	µg/mL	0.748
EV046141 (antibody, human IgG1, lambda, V domains shown) VH: QVQLVQSGAEVKKPGASVKVSCKASGYTFADYYIHWLRQAPGQGLEWLGRINPSNSRTTYPQKFQGRVTVTRDTSTSTVYMELSSLRSADTAVYYCARDGLRMGYYYMDVWGKGTTVTVSS VL: QSVLTQPPSVSGAPGQRVTISCTGSSSNIGAGYDVHWYQQIPGTAPKLLIFGNYNRPSGVPDRFSASKSGTSASLAITGLQAEDEAHYYCQSYDTTLDGAVFGGGTKLTVLG	µg/mL	0.836
